FYI, the data here is from patent US9023821B2.

- Test system: human airway epithelial cells (HAECs)
- assayName: High-throughput sequencing (HTS) of miRNAs at four stages of differentiation of HAECs
- settings: stage D7; Table VI
Level of intensity of expression in log2 measured by high-throughput sequencing, D7 vs 8 log2: at or above is Criterion met, below is Criterion not met.

Some entries whose results are on file:
hsa-miR-203: human miRNA, SEQ ID No. 19 (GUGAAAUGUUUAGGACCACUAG; expressed or natural sequence; listed as Homo sapiens) ... Criterion met
hsa-miR-148a: human miRNA, SEQ ID No. 7 (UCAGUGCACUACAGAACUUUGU; expressed or natural sequence; listed as Homo sapiens) ... Criterion met
hsa-miR-96: human miRNA, SEQ ID No. 51 (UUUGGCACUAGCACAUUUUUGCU; expressed or natural sequence; listed as Homo sapiens) ... Criterion not met
hsa-miR-26b: human miRNA, SEQ ID No. 29 (UUCAAGUAAUUCAGGAUAGGU; expressed or natural sequence; listed as Homo sapiens) ... Criterion not met

Kindly review the next substance as well.
Exam item: decide whether the reported Level of intensity of expression in log2 measured by high-throughput sequencing, D7 for hsa-miR-200a: human miRNA, SEQ ID No. 16 (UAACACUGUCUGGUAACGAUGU; expressed or natural sequence; listed as Homo sapiens) is at least 8 log2.
Criterion met

====

- Test system: human airway epithelial cells (HAECs)
- assayName: Agilent miRNA chips, miRNA expression at four stages of differentiation of HAECs
- settings: stage D7; Table VI
Threshold rule: Level of intensity of expression in log2 measured with the Agilent chips, D7 greater than or equal to 10 log2 is Criterion met; below that, Criterion not met.

Solved cases below.
hsa-miR-374a: human miRNA, SEQ ID No. 42 (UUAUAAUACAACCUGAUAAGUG; expressed or natural sequence; listed as Homo sapiens) ... Criterion not met
hsa-miR-29a: human miRNA, SEQ ID No. 31 (UAGCACCAUCUGAAAUCGGUUA; expressed or natural sequence; listed as Homo sapiens) ... Criterion met
hsa-miR-141: human miRNA, SEQ ID No. 6 (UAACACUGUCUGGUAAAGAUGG; expressed or natural sequence; listed as Homo sapiens) ... Criterion met

Kindly determine if Level of intensity of expression in log2 measured with the Agilent chips, D7 recorded for hsa-miR-26a: human miRNA, SEQ ID No. 28 (UUCAAGUAAUCCAGGAUAGGCU; expressed or natural sequence; listed as Homo sapiens) is above or exactly 10 log2.
Criterion met

====

- Test system: human airway epithelial cells (HAECs)
- assayName: High-throughput sequencing (HTS) of miRNAs at four stages of differentiation of HAECs
- settings: HTS, ALI-FC
Collected Abundance (%), FC values appear next to each entry.

# example entries with known answers
hsa-miR-99a: human miRNA, SEQ ID No. 52 (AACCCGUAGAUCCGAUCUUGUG; expressed or natural sequence; listed as Homo sapiens) ... 0.85%
hsa-miR-34c-5p: human miRNA, SEQ ID No. 40 (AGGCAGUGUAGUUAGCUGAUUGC; expressed or natural sequence; listed as Homo sapiens) ... 2.05%

Request: Abundance (%), FC, test system human airway epithelial cells (HAECs), entry hsa-miR-130a: human miRNA, SEQ ID No. 4 (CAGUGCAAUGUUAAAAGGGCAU; expressed or natural sequence; listed as Homo sapiens)
1.42%

# query: Abundance (%), FC | item hsa-miR-449a: human miRNA, SEQ ID No. 46 (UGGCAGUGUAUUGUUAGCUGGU; expressed or natural sequence; listed as Homo sapiens) | system: human airway epithelial cells (HAECs)
6.49%

Recall the recorded Abundance (%), FC for hsa-miR-193b: human miRNA, SEQ ID No. 14 (AACUGGCCCUCAAAGUCCCGCU; expressed or natural sequence; listed as Homo sapiens) with human airway epithelial cells (HAECs) and state it.
0.50%

# value lookup — system human airway epithelial cells (HAECs), readout Abundance (%), FC, item hsa-miR-203: human miRNA, SEQ ID No. 19 (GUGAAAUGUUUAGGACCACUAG; expressed or natural sequence; listed as Homo sapiens)
2.29%

Observed Abundance (%), FC on human airway epithelial cells (HAECs) for hsa-miR-140-3p: human miRNA, SEQ ID No. 5 (UACCACAGGGUAGAACCACGG; expressed or natural sequence; listed as Homo sapiens) , please.
1.85%
